# experimental.system: Neu5Ac(a2-6)GalNAc(b1-4)GlcNAc
# assay.info: glycan array binding signal (z-score within array); higher = stronger binding
# setup.conditions: glycan notation: IUPAC condensed, linker removed
The entries come from a sample that favours the strongest signals as a whole.
Overview of recorded glycan array binding signal (z-score) for various binders
When you answer, write just the number.

binder	numeric.value
BC2LB (Burholderia cenocepacia), B4EH85_BURCJ (protein) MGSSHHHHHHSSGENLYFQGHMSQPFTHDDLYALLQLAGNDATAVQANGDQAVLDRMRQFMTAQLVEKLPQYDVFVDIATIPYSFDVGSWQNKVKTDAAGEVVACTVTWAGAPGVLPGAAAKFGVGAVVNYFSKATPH	-0.418

Which measured glycan array binding signal (z-score) value corresponds to LecB LY19 (Pseudomonas aeruginosa) (protein) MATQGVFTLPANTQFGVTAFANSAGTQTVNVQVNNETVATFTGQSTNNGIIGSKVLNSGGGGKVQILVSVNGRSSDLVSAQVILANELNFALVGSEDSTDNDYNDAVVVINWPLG ?
-0.55

Which measured glycan array binding signal (z-score) value corresponds to Epa9 (Candida glabrata), CAGL0A01386g (protein) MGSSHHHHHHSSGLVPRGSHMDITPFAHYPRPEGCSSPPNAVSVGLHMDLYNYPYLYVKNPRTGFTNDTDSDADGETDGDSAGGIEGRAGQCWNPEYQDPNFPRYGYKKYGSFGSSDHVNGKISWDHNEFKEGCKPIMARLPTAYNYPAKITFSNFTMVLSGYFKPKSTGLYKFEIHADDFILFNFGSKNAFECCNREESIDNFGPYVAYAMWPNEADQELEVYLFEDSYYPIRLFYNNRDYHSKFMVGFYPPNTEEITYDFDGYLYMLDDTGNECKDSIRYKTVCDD ?
-0.519

Which measured glycan array binding signal (z-score) value corresponds to RS2L (Ralstonia solanacearum), B5RXL5_RALSO (protein) MAQQGVFTLPANTSFGVTAFANAANTQTIQVLVDNVVKATFTGSGTSDKLLGSQVLNSGSGAIKIQVSVNGKPSDLVSNQTILANKLNFAMVGSEDGTDNDYNDGIAVLNWPLG ?
-0.242

These entries and their values trace back to the supplement of paper PMC8728848.
